target: Bcl-xL (Homo sapiens, UniProt Q07817); assay: Bcl-xL binding affinity analysis (fluorescence polarization binding assay); set-up: scale not given here
Sequence (Q07817 whole entry): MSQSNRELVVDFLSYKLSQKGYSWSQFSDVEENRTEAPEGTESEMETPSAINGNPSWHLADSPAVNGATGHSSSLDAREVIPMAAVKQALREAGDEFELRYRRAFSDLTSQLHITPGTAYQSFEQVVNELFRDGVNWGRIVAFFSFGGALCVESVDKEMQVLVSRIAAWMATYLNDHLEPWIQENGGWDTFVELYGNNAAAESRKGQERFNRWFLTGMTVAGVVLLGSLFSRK
REPORTED_ENDPOINT: Bcl-XL binding affinity Ki

[[record]]
molecule = "CC(O)C1C(CO)ON(Cc2cccc(CN(CCN(C)C)Cc3cccs3)c2)C1C(=O)NC1CC2CC(C1C)C2(C)C (centres unmarked) [Compound 358]"
reported_value = "♯"

[[record]]
molecule = "C[C@@H](O)[C@H]1[C@@H](CO)ON(Cc2cccc(C#CC(O)Cc3ccccc3)c2)[C@H]1C(=O)NCCCN(C)c1ccccc1 (some centres unmarked) [Compound 39]"
reported_value = "♯♯"

[[record]]
molecule = "C[C@@H](O)[C@H]1[C@@H](CO)ON(Cc2cccc(C#CC(C)(O)c3ccccc3)c2)[C@H]1C(=O)NCCCN(C)c1ccccc1 (some centres unmarked) [Compound 49]"
reported_value = "♯"

[[record]]
molecule = "CC(O)C1C(CO)ON(Cc2cccc(CN(CCN(C)C)CC3=CCCCC3)c2)C1C(=O)NC1CC2CC(C1C)C2(C)C (centres unmarked) [Compound 354]"
reported_value = "♯"

[[record]]
molecule = "CC(O)C1C(CO)ON(Cc2cccc(CN(CCN(C)C)Cc3nccs3)c2)C1C(=O)NC1CC2CC(C1C)C2(C)C (centres unmarked) [Compound 395]"
reported_value = "♯"

[[record]]
molecule = "CC(O)C1C(CO)ON(Cc2cccc(CN(C)C(Cc3ccccc3)CN(C)C)c2)C1C(=O)NC1CC2CC(C1C)C2(C)C (centres unmarked) [Compound 464]"
reported_value = "♯"

[[record]]
molecule = "COc1ccccc1CN(CCN(C)C)Cc1cccc(CN2OC(CO)C(C(C)O)C2C(=O)NC2CC3CC(C2C)C3(C)C)c1 (centres unmarked) [Compound 351]"
reported_value = "♯"

[[record]]
molecule = "C[C@H](O)[C@@H]1[C@H](CO)ON(Cc2cccc(-c3ccc(C(=O)N[C@H]4CCN(C)C4)cc3)c2)[C@@H]1C(=O)NC1C[C@H]2C[C@@H]([C@@H]1C)C2(C)C (some centres unmarked) [Compound 231]"
reported_value = "♯"

[[record]]
molecule = "CC(O)[C@H]1[C@@H](CO)ON(Cc2cccc(C#CC(C)(C)c3ccccc3)c2)[C@H]1C(=O)NCCCN(C)c1ccccc1 (some centres unmarked) [Compound 31]"
reported_value = "♯"

[[record]]
molecule = "C[C@H](O)[C@@H]1[C@H](CO)ON(Cc2cccc(N3CCN(C(=O)N(C)C)CC3)c2)[C@@H]1C(=O)NC1C[C@H]2C[C@@H]([C@@H]1C)C2(C)C (some centres unmarked) [Compound 291]"
reported_value = "♯"

[[record]]
molecule = "C[C@@H]1[C@@H](NC(=O)[C@@H]2[C@H]([C@H](C)O)[C@H](CO)ON2Cc2cccc(NC(=O)N[C@@H](Cc3ccccc3)CN(C)C)c2)C[C@H]2C[C@@H]1C2(C)C [Compound 570]"
reported_value = "♯"

[[record]]
molecule = "CC(O)C1C(CO)ON(Cc2cccc(CN3Cc4ccccc4C3CN(C)C)c2)C1C(=O)NC1CC2CC(C1C)C2(C)C (centres unmarked) [Compound 470]"
reported_value = "♯"

[[record]]
molecule = "CC(O)C1C(CO)ON(Cc2cccc(CN(CCN3CCCC3)CC3CCCCC3)c2)C1C(=O)NC1CC2CC(C1C)C2(C)C (centres unmarked) [Compound 425]"
reported_value = "♯"

[[record]]
molecule = "CC(C)[C@H](CN(C)C)NC(=O)c1cccc(-c2cccc(CN3O[C@@H](CO)[C@@H]([C@H](C)O)[C@H]3C(=O)N[C@H]3C[C@H]4C[C@@H]([C@@H]3C)C4(C)C)c2)c1 [Compound 103]"
reported_value = "♯"

[[record]]
molecule = "C[C@@H]1[C@@H](NC(=O)[C@@H]2[C@H]([C@H](C)O)[C@H](CO)ON2Cc2cccc(-c3ccc(S(N)(=O)=O)cc3)c2)C[C@H]2C[C@@H]1C2(C)C [Compound 120]"
reported_value = "♯♯"

[[record]]
molecule = "CC(O)C1C(CO)ON(Cc2cccc(CN(Cc3ccccc3)C(Cc3ccccc3)CN(C)C)c2)C1C(=O)NC1CC2CC(C1C)C2(C)C (centres unmarked) [Compound 423]"
reported_value = "♯"

[[record]]
molecule = "CC(O)C1C(CO)ON(Cc2cccc(CN3c4ccccc4CC3CN(C)C)c2)C1C(=O)NC1CC2CC(C1C)C2(C)C (centres unmarked) [Compound 465]"
reported_value = "♯"

[[record]]
molecule = "C[C@@H]1[C@@H](NC(=O)[C@@H]2[C@H]([C@H](C)O)[C@H](CO)ON2Cc2cccc(-c3cccc(C(=O)NCCN(CCO)CCO)c3)c2)C[C@H]2C[C@@H]1C2(C)C [Compound 131]"
reported_value = "♯"

[[record]]
molecule = "C[C@@H]1[C@@H](NC(=O)[C@@H]2C(CO)[C@H]([C@H](C)O)ON2Cc2cccc(C#CC(C)(O)c3ccccc3)c2)C[C@H]2C[C@@H]1C2(C)C (some centres unmarked) [Compound 35]"
reported_value = "♯"

[[record]]
molecule = "CC(O)C1C(CO)ON(Cc2cccc(CN(Cc3ccccc3)C(CN(C)C)c3ccccc3)c2)C1C(=O)NC1CC2CC(C1C)C2(C)C (centres unmarked) [Compound 418]"
reported_value = "♯"

[[record]]
molecule = "CC(O)C1C(CO)ON(Cc2cccc(CN(CCN3CCCCC3)Cc3ccccc3)c2)C1C(=O)NC1CC2CC(C1C)C2(C)C (centres unmarked) [Compound 433]"
reported_value = "♯"

[[record]]
molecule = "CC(O)C1C(CO)ON(Cc2cccc(CN(CCN(C)C)Cc3cccc(Br)c3)c2)C1C(=O)NC1CC2CC(C1C)C2(C)C (centres unmarked) [Compound 366]"
reported_value = "♯"

[[record]]
molecule = "COc1c(CN2O[C@@H](CO)[C@@H]([C@H](C)O)[C@H]2C(=O)N[C@H]2C[C@H]3C[C@@H]([C@@H]2C)C3(C)C)cccc1-c1cccc(C(=O)N[C@@H](CCc2ccccc2)CN(C)C)c1 [Compound 481]"
reported_value = "♯"

